experiment.description: Chromophore titration, fit to single binding site isotherm: DFHBI
measurement.setup: n=1 titration; ± SD of the fit; Table 3C; read-out: DFHBI Kd
Protocol: Fluorescence binding assay. Protein-activated DFHBI fluorescence signals were measured in 96-well plate format (Corning 3650) on a Synergy neo2 plate reader (BioTek, Inc) with λex=450 nm or 460 nm and λem=500 nm or 510 nm. […] Protein concentrations were determined by 280 nm absorbance as described above. […] Approximate emission spectra were recorded for active designs from 490 to 600 nm. Table 3A-C. […] Values with “N/D” were not determined.

molecule	relation.operator	Kd (nM)
mFAP2: SEQ ID NO:38; variant of b11L5F.1 with 6-residue insertion in the seventh β-turn (protein, (1)..(1) optionally absent) MSRAAQLLPGTWQVTMTNEDGQTSQGQMHFQPRSPYTMDVVAQGTISDGRPISGYGKVTVKTPDTLDVDITYPSLGNIKAQGQITMDSPTQFKFDATTKGAGNFTGRLTGTLQRQE	=	1150
mFAP2a: SEQ ID NO:66 (protein, (1)..(1) optionally absent) MSRAAQLLPGTWQATFTNEDGQTSQGQWHFQPRSPYTMDIVAQGTISDGRPIVGYGKATVKTPDTLDIDITYPSLGNIKAQGQITMDSPTQFKWDATTKGENDFHGRLTGTLQRQE	=	54.6
mFAP1: SEQ ID NO:33; variant of b11L5F.2 (protein, (1)..(1) optionally absent) MSRAAQLLPGTWQTTMTNEDGQTSQGQMHFQPRSPYTLDVVAQGTISDGRPISGYGKVTVKTDDTLDVDITYPSLGNIKVQGQVTMDSPTQFKFDATTSDGKKLTGTLQRQE	<	500
mFAP2.5: SEQ ID NO:60; mutations of mFAP2.3 and mFAP2.4 combined (protein, (1)..(1) optionally absent) MSRAAQLLPGTWQVTMTNEDGQTSQGQWHFQPRSPYTMDIVAQGTISDGRPIVGYGKATVKTPDTLDVDITYPSLGNIKAQGQITMDSPTQFKWDATTKGENDFHGRLTGTLQRQE	=	1130
mFAP2.3: SEQ ID NO:58 (protein, (1)..(1) optionally absent) MSRAAQLLPGTWQVTMTNEDGQTSQGQMHFQPRSPYTMDVVAQGTISDGRPIVGYGKVTVKTPDTLDVDITYPSLGNIKAQGQITMDSPTQFKFDATTKGENDFHGRLTGTLQRQE	<	500
mFAP2b: SEQ ID NO:69; mFAP2.5 with V67I (protein, (1)..(1) optionally absent) MSRAAQLLPGTWQVTMTNEDGQTSQGQWHFQPRSPYTMDIVAQGTISDGRPIVGYGKATVKTPDTLDIDITYPSLGNIKAQGQITMDSPTQFKWDATTKGENDFHGRLTGTLQRQE	=	1670
mFAP2.4: SEQ ID NO:59 (protein, (1)..(1) optionally absent) MSRAAQLLPGTWQVTMTNEDGQTSQGQMHFQPRSPYTMDIVAQGTISDGRPIVGYGKATVKTPDTLDVDITYPSLGNIKAQGQITMDSPTQFKFDATTKGAGNFTGRLTGTLQRQE	=	1310
mFAP2.2: SEQ ID NO:41 (protein, (1)..(1) optionally absent) MSRAAQLLPGTWQVTMTNEDGQTSQGQMHFQPRSPYTMDVVAQGTISDGRPIVGYGKVTVKTPDTLDVDITYPSLGNIKAQGQITMDSPTQFKFDATTKGAGNFTGRLTGTLQRQE	=	1150
